Tested on: COLO 205
Assay: Cytotoxicity against human COLO 205 cells assessed as cell viability incubated for 48 hrs by MTT assay
Format: functional, cell-based
Settings: COLO 205, 48 h
Below, each entry is listed alongside its reported pIC50.
// pIC50: -log10(molar conc.)

INSERT INTO results (molecule, measured_property, test_result) VALUES
  ('NS(=O)(=O)c1ccc(-n2cc(COc3ccc(Cl)cc3Cl)nn2)cc1', 'pIC50', 3.77),
  ('NS(=O)(=O)c1ccc(-n2cc(COc3ccc([N+](=O)[O-])cc3)nn2)cc1', 'pIC50', 3.91),
  ('NS(=O)(=O)c1ccc(-n2cc(COc3ccc([N+](=O)[O-])cc3C=O)nn2)cc1', 'pIC50', 3.88),
  ('NS(=O)(=O)c1ccc(-n2cc(COc3ccccc3C=O)nn2)cc1', 'pIC50', 3.83),
  ('O=c1[nH]cc(F)c(=O)[nH]1 [FLUOROURACIL]', 'pIC50', 4.05),
  ('Cc1ccc(OCc2cn(-c3ccc(S(N)(=O)=O)cc3)nn2)c([N+](=O)[O-])c1', 'pIC50', 3.78),
  ('CC(=O)c1ccccc1OCc1cn(-c2ccc(S(N)(=O)=O)cc2)nn1', 'pIC50', 3.80),
  ('NS(=O)(=O)c1ccc(-n2cc(COc3ccc(C=O)cc3)nn2)cc1', 'pIC50', 4.12);

GET /values?readout=pIC50&item= CC(=O)c1cccc(OCc2cn(-c3ccc(S(N)(=O)=O)cc3)nn2)c1
4.09

meta.source: ChEMBL document CHEMBL6114957
